Target desc: T1, HLA-DP402 (HLA-DPB1*04:02) (human, UniProt P20036 29-222)
T1 construct: mature; purified from homozygous EBV-transformed lymphoblastoid cells with antibody B7/21
Protocol: competition ELISA vs biotin-Oxy 271-287
No end group written: not given here.
Is relative affinity at least 200? Then class 1. If not, class 0.

Solved cases (5 shown):
binder="HFPPSQIAAGAFCLA-NH2 [CCNB1 338-352]" class="class 0"
binder="LALKILDNGEWTPTL-NH2 [CCNB1 351-365]" class="class 1"
binder="H-KNVVMVNQGLTKHMT-NH2 (not fully specified) [CCNB1 385-399]" class="class 0"
binder="PNLCSEYVKDIYAYL-NH2 [CCNB1 164-178]" class="class 1"
binder="REVTGNMRAILIDWL-NH2 [CCNB1 195-209]" class="class 1"

API: above_or_equal(metric=relative affinity, cutoff=200) for item MELTMLDYDMVHFPP-NH2 [CCNB1 327-341]
class 0

Has KKLPKPLEKVPMLVP-NH2 [CCNB1 77-91] a recorded relative affinity greater than or equal to 200?
class 1

Threshold query (relative affinity >= 200) on LSYTEESLLPVMQHL-NH2 [CCNB1 369-383]
class 0

Item EKLSPEPILVDTASP-NH2 [CCNB1 113-127] with relative affinity of 200 or above?
class 0

The measured values listed here are drawn from patent US20180086804A1.
